Each recorded value in this set is attributed to paper PMC2897767.

# Study target: actin capping protein (CP), chicken α1/β1, CP_full (chicken, UniProt P13127 1-286; P14315 1-277)
# Procedure summary: SPR; as a1, but koff >0.1 s^-1: amount of bound CP at the steady state plotted against the concentration of CP (Michaelis-Menten plots under saturated binding conditions)
# Test settings: both partners purified
pKd: −log10 of the molar value.
Measured quantity: pKd

Binder	pKd
GST-CA55 (domain or fragment, CARMIL, mouse, residues 962–1016) FPSVRQEKRSSGLISELPSEEGRRLEHFTKLRPKRNKKQQPTQAAVCTISILPQD	5.40

A: FDSLTVRTSKETDVVNFDDIASSENLLHLTANRPKMPGRRLPG (domain or fragment, CD2AP, human, residues 461–503; cloned into pGEX-6P-1) [GST-CD43]
B: GST-CA63 (domain or fragment, CARMIL, mouse, residues 962–1024) FPSVRQEKRSSGLISELPSEEGRRLEHFTKLRPKRNKKQQPTQAAVCTISILPQDGEQNGLMG
Q: Compare A and B and name the one whose reported pKd is smaller. Refer to your chosen entry by its label in the reply.
A: B
